Entries and their measured growth follow.
# Test system: SK-OV-3 ovarian
# assayProtocol: NCI-60 one-dose screen, 48 h (100 = growth as untreated, 0 = no growth, -100 = all killed)
# condition: 10 µM unless noted
About 83,000 compounds went through this panel and 20% of them were active in at least one assay; those are over-represented in the sample as a whole.
Hi! Could you send only the number? It should be in %, unit omitted.

Some entries whose results are on file:
>  <compound>
COc1ccc(C(=O)COc2ccc(/C=C3\Oc4ccc(OC)cc4C3=O)cc2)cc1

>  <displayUnit>
%

>  <growth>
102

$$$$
>  <compound>
CN(C)C(=S)N=Nc1c(O)[nH]c2ccccc12

>  <displayUnit>
%

>  <growth>
18.8

$$$$
>  <compound>
NNCCc1ccc(NC(=O)CCCc2ccc(/C=C/C(=O)NO)cc2)cc1

>  <displayUnit>
%

>  <growth>
64.1

$$$$
>  <compound>
CSc1nc(Nc2cccc(NC(=O)CCl)c2)c(C#N)c(-c2cccc([N+](=O)[O-])c2)n1

>  <displayUnit>
%

>  <growth>
95.5

$$$$
>  <compound>
CC(C)(CCCN=C(N)Nc1ccc(Cl)cc1)c1ccc(F)cc1

>  <displayUnit>
%

>  <growth>
94.7

$$$$
>  <compound>
CCN1CCN(c2nc(NCCCNc3ccnc4cc(Cl)ccc34)c3ccccc3n2)CC1

>  <displayUnit>
%

>  <growth>
60

$$$$
>  <compound>
CCC([N+](=O)[O-])S(=O)(=O)c1ccc(C)cc1 (stereo not given)

>  <displayUnit>
%

>  <growth>
108

$$$$
>  <compound>
O=C1Nc2cc(-c3ccc(O)cc3)ccc2/C1=C/c1ccc[nH]1

>  <displayUnit>
%

>  <growth>
8.32

$$$$

-- ask Hello, please tell me recorded growth for this one: O=C(N=Nc1c(O)[nH]c2ccccc12)c1cc(-c2ccccc2)on1
-- reply 116

-- ask Hello, please tell me recorded growth for this one: Cc1cc(N2CCCC2)nc(NC2CCCC(Nc3ccnc4cc(Cl)ccc34)C2)n1 (stereo not given)
-- reply -29
